test system: RAW264.7; test: Antiinflammatory activity in mouse RAW264.7 cells assessed as inhibition of LPS induced iNOS-dependent nitric oxide production at 5 ug/ml after 24 hrs by Griess assay relative to control; type: functional; settings: RAW264.7, 24 h
Provide the recorded inhibition at 5 µg/mL for the entries that follow.
Enter your answer as a number in %; do not include the unit.

Prompt line: For the compound "COc1cc(C(=O)CCc2cccc(OC)c2OC)ccc1O" , what inhibition at 5 µg/mL is on record?
Response line: 15.9

Prompt line: For the compound "COc1ccc(C(=O)/C=C/c2ccc(OC)c(OC)c2OC)c(O)c1" , what inhibition at 5 µg/mL is on record?
Response line: 4.1

Prompt line: For the compound "COc1cc(C(=O)/C=C/c2cccc(OC)c2OC)ccc1O" , what inhibition at 5 µg/mL is on record?
Response line: 3.2

Prompt line: For the compound "COc1ccc(/C=C/C(=O)c2ccc(OC)c(OC)c2)cc1O" , what inhibition at 5 µg/mL is on record?
Response line: 2.6

Prompt line: For the compound "COc1ccc(/C=C/C(=O)c2ccc(OC)cc2O)cc1" , what inhibition at 5 µg/mL is on record?
Response line: 54

Prompt line: For the compound "COc1ccc(C(=O)/C=C/c2ccc(OC)c(OC)c2)c(O)c1" , what inhibition at 5 µg/mL is on record?
Response line: 49.6

###

Provide the recorded viability at 24 h, 2.5 ug/ml for the entries that follow.
assay: Cytotoxicity against LPS-stimulated mouse RAW264.7 cells assessed as cell viability at 2.5 ug/ml after 24 hrs by MTT assay relative to control; assay type: cell-based; settings: LPS-stimulated RAW264.7 cells, read-out: Activity
Enter your answer as a number in %; do not include the unit.

Prompt line: For the molecule "COc1cc(CCCc2cccc(OC)c2OC)ccc1O" , what viability at 24 h, 2.5 ug/ml is on record?
Response line: 97.8

Prompt line: For the molecule "COc1cc(CCCc2cccc(O)c2)ccc1O" , what viability at 24 h, 2.5 ug/ml is on record?
Response line: 99.5

Prompt line: For the molecule "COc1ccc(C(=O)CCc2ccc3c(c2)OCO3)c(OC)c1" , what viability at 24 h, 2.5 ug/ml is on record?
Response line: 87.2

Prompt line: For the molecule "COc1ccc(CCCc2ccc(OC)c(OC)c2)c(O)c1" , what viability at 24 h, 2.5 ug/ml is on record?
Response line: 91.7
